Experiment: Phase I Part IV: 14-day repeated dose pharmacokinetics, oral suspension
Format: in vivo, human (healthy volunteers)
Details: male, human, plasma, oral; 200 mg once daily, steady conditions; read-out: C Max (mean +/− SD, N = 9)
recordedMetric: Cmax
For clarity, give the value followed by its unit.

Prompt line: Give its Cmax value. Item: CC(=O)O.N=C(N)N/N=C/C=C/c1cccn1-c1ccccc1[N+](=O)[O-] [AP1189]
Response line: 893 ng/mL
